testDetails: qHTS Assay for Lipid Storage Modulators in Drosophila S3 Cells
experimentalParameters: BODIPY lipid droplet fluorescence, 18-24 h, cells fed with added oleic acid; series mostly up to 46.1 µM
From the text: NIH Molecular Libraries Probe Production Centers Network [MLPCN] NIH Chemical Genomics Center [NCGC] […] Triacsin C (Sigma-Aldrich T-4540), an inhibitor of long-chain fatty acyl CoA synthetase that blocks synthesis of triglycerides, was used as a positive control for lipid under-storage. […] Fluorescence was detected by excitation of the fluorophores with a 488-nm laser on an Acumen Explorer (TTP Lab Tech). […] Cells were detected using channel 3 (575-640 nm) with 5-um width and 100-um depth filters. […]
Out of some 320,000 compounds screened, about 2,100 (0.66%) were called active. Roughly 53% stayed inconclusive and do not appear here. Calls come from the whole dose curve; as a rule, active = well fitted inhibition curve with a large enough effect in the signal ratio, with a control signal flat (not every such curve was filed as active); inconclusive = small, poorly fitted or top-dose-only effect, or effect the other way, or a change in a side signal; inactive = flat fitted curve, though single readings scatter; the % refers to the signal ratio. For the sample, actives were picked, then their nearest neighbours and some compounds at random.
Classes used: active, inactive

{"columns": ["smilesCode", "class"],
 "data": [
  ["CC(C)(C)c1ccc(C(=O)NCC(=O)N2CCCC2)cc1", "inactive"],
  ["COc1ccc(OC)c(CN2CCN(C(=O)CNC(=O)c3ccc(C(C)(C)C)cc3)CC2)c1", "active"],
  ["COc1ccc(C(=O)N2CCN(Cc3cc(OC)ccc3OC)CC2)cc1", "inactive"],
  ["C=CCOc1ccc(C(=O)Nc2ccccc2C(=O)NCc2cccnc2)cc1", "active"],
  ["COc1cc2ccccc2cc1C(=O)NC(=S)Nc1cc(C(=O)O)ccc1C", "inactive"],
  ["COc1ccc(OC)c(CN2CCN(C(=O)c3ccc(S(=O)(=O)Nc4ccccc4F)cc3)CC2)c1", "active"]
]}

----------
testDetails: qHTS Assay for Lipid Storage Modulators in Drosophila S3 Cells
experimentalParameters: BODIPY lipid droplet fluorescence, 18-24 h, cells fed with added oleic acid; series mostly up to 46.1 µM
The whole screen tested about 320,000 compounds, of which about 2,100 (0.66%) were called active. Inconclusive results (about 53%) are left out. Calls come from the whole dose curve; as a rule, active = well fitted inhibition curve with a large enough effect in the signal ratio, with a control signal flat (not every such curve was filed as active); inconclusive = small, poorly fitted or top-dose-only effect, or effect the other way, or a change in a side signal; inactive = flat fitted curve, though single readings scatter; the % refers to the signal ratio. For the sample, actives were picked, then their nearest neighbours and some compounds at random.
Classes used: active, inactive

{"columns": ["compound", "class"],
 "data": [
  ["O=C(CNC(=O)c1cccs1)NCC(=O)OCc1ccc(F)cc1", "inactive"],
  ["N=c1c(C(=O)NCc2ccco2)cc2c(=O)n3ccccc3nc2n1C1CCCC1", "active"],
  ["COc1ccc(Nc2ccncc2[N+](=O)[O-])cc1", "inactive"],
  ["COc1cccc(CN2CCNC(=O)C2CC(=O)NCc2cn3cccc(C)c3n2)c1OC (centres undefined)", "inactive"]
]}

----------
Below, each of the molecules is paired with its reported cell number change value.
testDetails: qHTS Assay for Lipid Storage Modulators in Drosophila S3 Cells;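 for cell number change: cells counted by Cell Tracker Red CMTPX staining in the red channel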
experimentalParameters: BODIPY lipid droplet fluorescence, 18-24 h, cells fed with added oleic acid; measured here: cell count max response
Among all 320,000 compounds or so, about 2,100 (0.66%) were called active. Inconclusive results (about 53%) are left out. This is one part of a sample in which actives are shown more often than they occur.
recordedMetric: cell number change (%)

{"columns": ["molecule", "recordedMetric", "numericResult"],
 "data": [
  ["c1ccc(-c2nc(-c3nccc4ccccc34)oc2-c2ccccc2)cc1", "cell number change", -5.47],
  ["Cc1ccc(C2C(C(=O)c3ccco3)=C(O)C(=O)N2c2ncccn2)cc1 (stereo not given)", "cell number change", 10.6],
  ["COc1ccc(C2C(C(=O)c3ccco3)=C(O)C(=O)N2CC2CCCO2)c(OC)c1 (stereo not given)", "cell number change", -0.87],
  ["O=C(C1=C(O)C(=O)N(CC2CCCO2)C1c1ccccc1Cl)c1ccco1 (stereo not given)", "cell number change", -3.95],
  ["COc1ccc(-c2cc(CNC(=O)CN3CCN(C)CC3)on2)cc1", "cell number change", -114]
]}
